biological target: Human PD-L1/PD-1 (Homo sapiens); construct: made in house; host or cells: HEK293T; assay: HTRF PD-1-Ig/PD-L1-His binding assay (human PD-L1); settings: Table 8, Compound No. 1 variant macrocyclic peptides; read-out: HTRF Human PD-L1/PD-1 Binding Assay IC50
Sequence (Q9NZQ7 with tags, fused parts or gaps): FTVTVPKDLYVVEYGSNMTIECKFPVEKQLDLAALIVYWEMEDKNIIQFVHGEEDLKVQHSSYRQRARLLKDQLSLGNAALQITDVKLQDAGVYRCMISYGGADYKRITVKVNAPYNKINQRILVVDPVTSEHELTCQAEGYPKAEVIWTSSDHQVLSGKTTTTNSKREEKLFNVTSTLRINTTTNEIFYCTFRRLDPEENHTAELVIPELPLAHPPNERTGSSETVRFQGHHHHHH
pIC50: −log10 of the molar value. Positions of bridges follow the written chain, without caps; N, C: chain ends. Non-standard residues stand in square brackets, D forms with d. Residues, ends and D or L forms follow the SMILES beside them. ξ: configuration not given here. NMeNle = CCCC[C@H](NC)C(=O)O; NMeS = CN[C@@H](CO)C(=O)O; NMeA = CN[C@@H](C)C(=O)O; Nle = CCCC[C@H](N)C(=O)O; ξP = O=C(O)C1CCCN1; Sar = CNCC(=O)O
Property Name: pIC50

>>> measured_number("CCCC[C@@H]1NC(=O)[C@H](CCCC)N(C)C(=O)[C@H](Cc2c[nH]c3ccccc23)NC(=O)[C@H](CO)NC(=O)[C@H](Cc2c[nH]c3ccccc23)NC(=O)CN(C)C(=O)[C@H](CC(C)C)NC(=O)[C@H](Cc2cnc[nH]2)NC(=O)C2CCCN2C(=O)[C@H](CC(N)=O)NC(=O)[C@H](C)N(C)C(=O)[C@H](Cc2ccccc2)NC(=O)CSC[C@@H](C(=O)NCC(N)=O)NC(=O)[C@H](CCCNC(=N)N)NC1=O (some centres unmarked) [Compound No. 20] ({CH2CO}-F[NMeA]N[ξP]HL[Sar]WSW[NMeNle][Nle]RCG-NH2; thioether N-14)")
5.07
>>> measured_number("CCCC[C@H]1C(=O)N(C)[C@@H](CCCC)C(=O)N[C@@H](CCCNC(=N)N)C(=O)N[C@H](C(=O)NCC(N)=O)CSCC(=O)N[C@@H](Cc2ccccc2)C(=O)N(C)[C@@H](C)C(=O)N[C@@H](CC(N)=O)C(=O)N2CCCC2C(=O)N[C@@H](C)C(=O)N[C@@H](CC(C)C)C(=O)N(C)CC(=O)N[C@@H](Cc2c[nH]c3ccccc23)C(=O)N[C@@H](CO)C(=O)N[C@@H](Cc2c[nH]c3ccccc23)C(=O)N1C (some centres unmarked) [Compound No. 10] ({CH2CO}-F[NMeA]N[ξP]AL[Sar]WSW[NMeNle][NMeNle]RCG-NH2; thioether N-14)")
7.80
>>> measured_number("CCCC[C@H]1C(=O)N(C)[C@@H](CCCC)C(=O)N[C@@H](CCCNC(=N)N)C(=O)N[C@H](C(=O)NCC(N)=O)CSCC(=O)N[C@@H](Cc2ccccc2)C(=O)N(C)[C@@H](C)C(=O)N[C@@H](CC(N)=O)C(=O)N2CCC[C@H]2C(=O)N[C@@H](Cc2cnc[nH]2)C(=O)N[C@@H](CC(C)C)C(=O)N(C)[C@@H](CO)C(=O)N[C@@H](Cc2c[nH]c3ccccc23)C(=O)N[C@@H](CO)C(=O)N[C@@H](Cc2c[nH]c3ccccc23)C(=O)N1C [Compound No. 56] ({CH2CO}-F[NMeA]NPHL[NMeS]WSW[NMeNle][NMeNle]RCG-NH2; thioether N-14)")
7.89
>>> measured_number("CCCC[C@H]1C(=O)N(C)[C@@H](CCCC)C(=O)N[C@@H](CCCNC(=N)N)C(=O)N[C@H](C(=O)NCC(N)=O)CSCC(=O)N[C@@H](Cc2ccccc2)C(=O)N(C)[C@@H](C)C(=O)N[C@@H](C)C(=O)N2CCCC2C(=O)N[C@@H](Cc2cnc[nH]2)C(=O)N[C@@H](CC(C)C)C(=O)N(C)CC(=O)N[C@@H](Cc2c[nH]c3ccccc23)C(=O)N[C@@H](CO)C(=O)N[C@@H](Cc2c[nH]c3ccccc23)C(=O)N1C (some centres unmarked) [Compound No. 8] ({CH2CO}-F[NMeA]A[ξP]HL[Sar]WSW[NMeNle][NMeNle]RCG-NH2; thioether N-14)")
7.51
